System: HCT-116 colon
method_summary: NCI tumour cell line growth inhibition, 48 h
measured_attribute: TGI

Which value of TGI has been reported for Cc1ccc2nc(CN3CCCC(O)C3)cc(=O)n2c1 (stereo not given) in the records?
> 100 µM

Again, but for COc1cc(S(=O)(=O)Nc2nc(-c3ccc(N4C(=O)CSC4c4cccs4)cc3)cs2)ccc1Cl (stereo not given)
> 100 µM

Then what about the compound COC(=O)C(Cc1c[nH]c2ccccc12)N=C1Nc2ccncc2S(=O)(=O)N1c1ccccc1 (stereo not given) ?
> 100 µM

Lookup N#CC(C#N)N=Cc1ccncc1
> 100 µM

Same lookup for CC(=O)c1cccc(N2COC(C)(C)c3nc4ccccc4n3C2)c1 , please.
> 100 µM

Then what about the compound Cc1oc2c(c1C)S(=O)(=O)C(C#N)C(c1ccccc1)N2 (stereo not given) ?
> 100 µM

Also, CSc1nc(C)c2c(n1)SCC2 please.
> 10 µM

Proceed to CCOC(=O)Nc1nc2ccc(Cn3cccc3)cc2[nH]1
> 100 µM

Same question, COC(=O)Nc1nc2ccc(S(=O)(=O)NC(CC(C)C)C(=O)OC)cc2[nH]1 (stereo not given) this time
19.1 µM

Lookup C=CCC(N[C@H](CO)c1ccccc1)c1ccc2ccccc2n1 (stereo not given in full)
> 100 µM

Subsequent entry: Cc1csc2nc3c(cnn3C)c(=S)n12
> 100 µM

Same question, Cc1cc(C)nc(NS(=O)(=O)c2ccc(NNc3c4ccccc4nc4c(C(=O)Nc5ccc(S(=O)(=O)Nc6ncccn6)cc5)cccc34)cc2)n1 this time
39.2 µM

Thanks! And CN1CCN(CCCN)CC1 ?
> 100 µM

Try this compound too: CC1(C)CN=C(c2ccc3c(c2)Cc2cc(C4=NCC(C)(C)N4)ccc2-3)N1
> 100 µM

What about this compound? CC[C@H](NC(=O)[C@H](C)NC)C(=O)N1C[C@@H](O)C[C@H]1Cc1c(-c2[nH]c3cc(F)ccc3c2C[C@@H]2C[C@H](O)CN2C(=O)[C@H](CC)NC(=O)[C@H](C)NC)[nH]c2cc(F)ccc12
> 100 µM

Also COc1cc(C2SCC(=O)N2c2ccccc2Cl)cc(OC)c1OC (stereo not given) , if possible.
> 100 µM

Thanks! And O=C1Nc2ccc(C(=O)c3ccco3)cc2/C1=C/c1cc(Cl)c(O)c(Cl)c1 ?
> 25 µM

Field entry: O=S(=O)(N/N=C/c1ccc(/C=N/NS(=O)(=O)c2ccccc2)cc1)c1ccccc1
> 100 µM

Then this compound: CC(C)c1ccc(C(=O)Nc2nc3ccc(O)cc3s2)cc1
> 100 µM

Try O=C(Nc1ccc(Cl)cc1)C(=O)C(C(=O)c1ccccc1-c1ccccc1)C1OC(=O)c2ccccc21 (stereo not given) next.
32.1 µM

Now this one: Cc1cc(I)cc(CN(C)CCCN2CCSCC2)c1O
30.8 µM

Queued: O=c1[nH]n(Cc2ccccc2Cl)c2ccc([N+](=O)[O-])cc12
> 100 µM

Moving on to the next compound: CC[C@](O)(CC(=O)O[C@H]1C(=O)O[C@@H]2C[C@H]3C(C)=CC(=O)[C@@H](O)[C@]3(C)[C@H]3[C@@]4(O)OC[C@]32[C@@H]1[C@@H](C)[C@H]4O)C(C)C
< 0.01 µM

Here is the next compound: O=C1CC(CC(O)[C@@H]2CCCC[C@@H]2O)CC(=O)N1c1ccccc1 (stereo not given in full)
> 100 µM

Can you handle COc1ccc2cc(Oc3ccc(Cl)cc3)c(=O)oc2c1 next?
> 100 µM

Item: O=[n+]1c2ccccc2n([O-])c2ccccc21
> 100 µM

Follow-up item: Cc1ccc(-n2cnc3c(N)nc(N)nc32)cc1
> 100 µM

Also CO[C@H]1c2cccc3cccc(c23)[C@@H]1n1[nH]c(=O)n(C(C)(C)C)c1=O ?
> 100 µM

Now the same for COc1ccccc1N1C(=O)/C(=C/c2ccc(N(CCC#N)CCC#N)cc2C)N=C1c1cc([N+](=O)[O-])ccc1Cl
> 100 µM

// query: CC(=O)c1c(C)[nH]c(-c2nc3ccc(N4CCN(C)CC4)cc3[nH]2)c1-c1ccc(OCC2CCOCC2)cc1
12.7 µM

Another compound: COC(=O)c1s/c(=N\C(=S)N(C)C)n(-c2ccccc2)c1C(=O)OC
> 100 µM

Quick one: O=C(c1ccccc1)c1ccc2nc3n(c2c1)C(c1c(F)cccc1F)SC3 (stereo not given)
13.5 µM

Now the compound CCCCCCCCCCCCCCCCCCNc1ccn(C2OC(COP(=O)(O)OC3CC(n4cc(F)c(=O)[nH]c4=O)OC3COP(=O)(O)OCC3OC(n4ccc(N)nc4=O)C(O)C3O)C(O)C2O)c(=O)n1 (stereo not given)
> 60.7 µM

Next: CC/C(C)=C1\CCC(CN2CCOCC2)C1=O (stereo not given)
26.8 µM

Try this compound next: O=c1c2c(nc3n1CCS3)[nH]c1ccccc12
> 100 µM

Cool, now COc1ccc(CN(C)c2ccc(CO)c(Cl)c2)cc1
14.2 µM

Another compound to look at: Cc1ccccc1NC(=O)N/C(N)=N/c1nc(-c2cccc([N+](=O)[O-])c2)cs1
3.18 µM

Here is the next compound: CC1=NN(C(=O)CC(=O)Nc2ccc(C)cc2)C(=O)C1N=Nc1ccc(C(=O)O)cc1 (stereo not given)
> 100 µM

Next: Nc1nc(Cl)c(N)c(NCC2(CO)CCC2)n1
> 100 µM

Okay, and CC1C[C@@]2(c3ccccc3)C(=O)CCC[C@H]2N1 (stereo not given in full) ?
> 100 µM

These data points were gathered from PubChem BioAssay (NCI).
